Measured values drawn from PubChem BioAssay (NCI) for this set.

Tested on: SK-OV-3 ovarian
PROTOCOL SUMMARY: NCI tumour cell line growth inhibition, 48 h
QUANTITY: TGI

[[record]]
compound = "c1ccc2c(c1)nc1ccccn12"
quantity = "TGI"
result = "> 100 µM"

[[record]]
compound = "NC(CCc1nc(-c2cccc([N+](=O)[O-])c2)cs1)C(=O)O (stereo unspecified)"
quantity = "TGI"
result = "> 100 µM"

[[record]]
compound = "Cc1cn(C2CC(O)C(Cn3nncc3Cn3cnc4c(N)ncnc43)O2)c(=O)[nH]c1=O (stereo unspecified)"
quantity = "TGI"
result = "> 100 µM"

[[record]]
compound = "C[C@@H](NC1CCCC[C@@H]1O)c1ccccc1 (stereo partly specified)"
quantity = "TGI"
result = "> 100 µM"

[[record]]
compound = "CN(C)c1n2c3ccc([N+](=O)[O-])cc3n3c(N(C)C)[n+]4ccccc4c3c2c2cccc[n+]12"
quantity = "TGI"
result = "> 100 µM"

[[record]]
compound = "CO[P@@]1(=O)O[C@@H](c2ccccc2)[C@H](O)[C@@]1(O)c1ccccc1"
quantity = "TGI"
result = "> 100 µM"

